Overview of recorded pEC50 for various binders
- targetOrSystem: full-length beta-Catenin (Uniprot ID P35222) (Homo sapiens (Human)) (UniProt P35222)
- Sequence (P35222 whole entry): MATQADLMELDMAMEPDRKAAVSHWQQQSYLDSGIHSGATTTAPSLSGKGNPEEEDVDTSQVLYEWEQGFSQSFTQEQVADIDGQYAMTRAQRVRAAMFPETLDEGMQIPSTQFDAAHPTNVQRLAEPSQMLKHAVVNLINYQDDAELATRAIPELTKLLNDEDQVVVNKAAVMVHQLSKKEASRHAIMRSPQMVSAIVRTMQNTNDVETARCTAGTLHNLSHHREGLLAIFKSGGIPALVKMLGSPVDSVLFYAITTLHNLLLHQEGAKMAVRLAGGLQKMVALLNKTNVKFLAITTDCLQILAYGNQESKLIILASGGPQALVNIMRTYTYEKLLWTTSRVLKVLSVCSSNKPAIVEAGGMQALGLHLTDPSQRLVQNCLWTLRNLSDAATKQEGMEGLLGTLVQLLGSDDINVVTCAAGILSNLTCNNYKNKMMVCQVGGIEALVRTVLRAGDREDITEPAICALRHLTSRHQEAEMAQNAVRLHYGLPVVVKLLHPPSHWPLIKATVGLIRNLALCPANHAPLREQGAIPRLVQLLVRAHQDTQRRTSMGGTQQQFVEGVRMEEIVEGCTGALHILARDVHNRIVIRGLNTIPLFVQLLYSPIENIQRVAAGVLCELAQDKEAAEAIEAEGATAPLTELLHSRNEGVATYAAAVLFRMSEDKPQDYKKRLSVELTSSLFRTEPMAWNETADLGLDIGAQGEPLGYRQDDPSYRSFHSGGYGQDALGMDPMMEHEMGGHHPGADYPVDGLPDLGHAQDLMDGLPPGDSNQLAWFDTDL
- testSummary: fluorescence polarization competition; full-length beta-catenin; competitor 5FAM-TCF4(10-53) probe
pEC50: −log10 of the molar value. Starred links: 1 amine or outer side, 2 acyl side, 3 side chain; linkers in the order of their positions; H or OH if unused. Positions of bridges follow the written chain, without caps; N, C: chain ends. Non-standard residues stand in square brackets, D forms with d. Primed or numbered codes have the meaning given here. PyrS2″ = (S)-3-amino-1-((pent-4-en-1-yloxy)carbonyl)pyrrolidine-3-carboxylic acid (stapling residue), C=CCCCOC(=O)N1CC[C@@](N[*:1])(C(=O)[*:2])C1; B5(21) = 2-amino-2-(pent-4-en-1-yl)hept-6-enoic acid, bis(4-pentenyl)glycine (stitching residue), C=CCCCC(CCCC=C)(N[*:1])C(=O)[*:2]; Bta = N[C@@H](Cc1csc2ccccc12)C(=O)O; αAllylPro = C=CC[C@@]1(C(=O)O)CCCN1; tBuAla = CC(C)(C)C[C@H](N)C(=O)O; 3Thi = N[C@@H](Cc1ccsc1)C(=O)O; R5 = C=CCCC[C@@](C)(N)C(=O)O; Aib = CC(C)(N)C(=O)O
outcomeMeasure: pEC50

>>> print(df.to_string())
                                     binder  recordednumber
0  Ac-[αAllylPro]D[tBuAla][B5(21)]DTAAFL[PyrS2″][3Thi][Bta]S-NH2 (staple 1-4, 4-11) [I-1171]            7.15
1  Ac-PD[tBuAla][R5]DDAAFL[PyrS2″][3Thi][Bta]Q-NH2 (staple 4-11) [I-1181]            6.65
2  Ac-[αAllylPro]D[tBuAla][B5(21)]DDA[Aib]FL[PyrS2″][3Thi][Bta]Q-NH2 (staple 1-4, 4-11) [I-1178]            7.26
